Below, each entry is listed with its recorded inhibition in vivo at 100 mg/kg.
tested on: Mus musculus; test: Antihyperglycemic activity in C57BL/Ks db/db mouse assessed as reduction in blood glucose level at 100 mg/kg, po measured 10 days post dose by postprandial glucose tolerance test; format: functional; settings: 240 h, in the assay text read “oral glucose tolerance test” for “postprandial glucose tolerance test”
Quick reminder: number only, in %, skip the unit.

Please review the entries below; each comes with its answer.
compound	unit_string	measured_result
CCN(CC)CCOc1cc(OC)ccc1-c1cc(-c2ccccc2)no1	%	21.5
COc1ccc(-c2cc(-c3ccccc3)no2)c(OCCN2CCCCC2)c1	%	16.1
COc1ccc(-c2cc(-c3ccccc3)no2)c(OCC(O)CN2CCCC2)c1 (centres undefined)	%	15.5

Consider the record given below.
q: Please indicate recorded inhibition in vivo at 100 mg/kg of `COc1ccc(-c2cc(-c3ccccc3)no2)c(OCCN2CCCC2)c1` measured with Mus musculus.
a: 21.6

====

test system: Rattus norvegicus; assay: Antihyperglycemic activity against sucrose challenged streptozotocin-induced diabetic Sprague-Dawley albino rat assessed as reduction in blood glucose level at 100 mg/kg, po administered 30 mins before sucrose challenge measured after 5 hrs; assay type: functional
experimental_readout: inhibition in vivo at 100 mg/kg (%)
Return type: number; implicit unit %.

As a guide, the following entries are already answered.
molecule	system_under_test	inhibition in vivo at 100 mg/kg / %
CCN(CC)CC(O)COc1cc(OC)ccc1-c1cc(-c2ccccc2)no1 (stereo not given)	Rattus norvegicus	11.6
Cc1ccc(S(=O)(=O)NC(=O)NN2CC3CCCC3C2)cc1 (stereo not given) [GLICLAZIDE]	Rattus norvegicus	27.7
COc1ccc(Cl)cc1C(=O)NCCc1ccc(S(=O)(=O)NC(=O)NC2CCCCC2)cc1 [GLYBURIDE]	Rattus norvegicus	32.8
COc1ccc(-c2cc(-c3ccccc3)no2)c(OCCCN2CCCC2)c1	Rattus norvegicus	13.4
COc1ccc(-c2cc(-c3ccccc3)no2)c(OCCN2CCCC2)c1	Rattus norvegicus	27.7
COc1ccc(-c2cc(-c3ccccc3)no2)c(OCCCC(=O)O)c1	Rattus norvegicus	14.9
CCN(CC)CCOc1cc(OC)ccc1-c1cc(-c2ccccc2)no1	Rattus norvegicus	26.9
COc1ccc(-c2cc(-c3ccccc3)no2)c(OCCN2CCCCC2)c1	Rattus norvegicus	17.6

q: Give the measured inhibition in vivo at 100 mg/kg for `COc1ccc(-c2cc(-c3ccccc3)no2)c(OCCN(C(C)C)C(C)C)c1`
a: 11.4

q: // fetch inhibition in vivo at 100 mg/kg given entry `COc1ccc(-c2cc(-c3ccccc3)no2)c(OCCN(C)C)c1`
a: 15.3

q: // Input: `COc1ccc(-c2cc(-c3ccccc3)no2)c(OCCCN2CCCCC2)c1` . Output its inhibition in vivo at 100 mg/kg only.
a: 14.7

q: Please look at this molecule and report its inhibition in vivo at 100 mg/kg: COc1ccc(-c2cc(-c3ccccc3)no2)c(OCC(O)CN2CCCC2)c1 (stereo not given)
a: 18.5

q: Please report inhibition in vivo at 100 mg/kg for the following molecule: COc1ccc(-c2cc(-c3ccccc3)no2)c(OCC(O)CN2CCCCC2)c1 (stereo not given)
a: 15.8

q: Note inhibition in vivo at 100 mg/kg for the molecule shown: `CCCCN(C)CCCOc1cc(OC)ccc1-c1cc(-c2ccccc2)no1`
a: 12.6

q: Determine its reported inhibition in vivo at 100 mg/kg: `CCN(CC)CCCOc1cc(OC)ccc1-c1cc(-c2ccccc2)no1`
a: 7.8

====

Target: Tyrosine-protein phosphatase non-receptor type 1 (Homo sapiens)
Sequence (P18031 whole entry): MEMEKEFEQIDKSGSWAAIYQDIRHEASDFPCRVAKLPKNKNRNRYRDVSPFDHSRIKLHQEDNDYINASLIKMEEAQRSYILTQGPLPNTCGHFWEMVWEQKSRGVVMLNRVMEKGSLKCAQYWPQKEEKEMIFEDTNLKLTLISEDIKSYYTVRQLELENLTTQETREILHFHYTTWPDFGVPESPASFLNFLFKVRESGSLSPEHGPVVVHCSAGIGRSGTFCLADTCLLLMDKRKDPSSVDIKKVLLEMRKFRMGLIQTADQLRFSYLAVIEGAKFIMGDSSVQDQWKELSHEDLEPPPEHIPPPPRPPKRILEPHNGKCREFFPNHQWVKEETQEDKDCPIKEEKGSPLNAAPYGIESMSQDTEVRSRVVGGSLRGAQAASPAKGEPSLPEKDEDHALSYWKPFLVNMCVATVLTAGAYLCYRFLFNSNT
Experiment: Inhibition of protein tyrosine phosphatase-1B at 10 uM incubated for 10 mins using pNPP substrate in absence of Triton X-100 by modified Goldstein method
pIC50: −log10 of the molar value.
// -1 strictly below 5 in pIC50; 1 otherwise

Examples with answers:
molecule	assigned_category
CCN(CC)CC(O)COc1cc(OC)ccc1-c1cc(-c2ccccc2)no1 (stereo unspecified)	1
COc1ccc(-c2cc(-c3ccccc3)no2)c(OCCCCl)c1	-1
COc1ccc(-c2cc(-c3ccccc3)no2)c(OCCCN(C)C)c1	-1

q: Is the recorded value of pIC50 equal to or greater than 5 for this molecule? COc1ccc(-c2cc(-c3ccccc3)no2)c(OCC(O)CN2CCCCC2)c1 (stereo unspecified)
a: 1

q: Please check the record `COc1ccc(-c2cc(-c3ccccc3)no2)c(OCCCC(=O)O)c1` and state if its pIC50 is at or above 5.
a: -1

====

biological target: Tyrosine-protein phosphatase non-receptor type 1 (Homo sapiens) (UniProt P18031); assay: Inhibition of protein tyrosine phosphatase-1B at 10 uM incubated for 10 mins using pNPP substrate by modified Goldstein method; set-up: scale not given: the % may be the effect or the level left
# note: exactly 80% is not below, so it is f; use t for Activity strictly under it

Previously resolved entries follow.
compound	assigned_category
CCN(CC)CC(O)COc1cc(OC)ccc1-c1cc(-c2ccccc2)no1 (stereo unspecified)	f
COc1ccc(-c2cc(-c3ccccc3)no2)c(OCC(=O)O)c1	t
COc1ccc(-c2cc(-c3ccccc3)no2)c(OCC(O)CN2CCCC2)c1 (stereo unspecified)	f
COc1ccc(-c2cc(-c3ccccc3)no2)c(OCC(O)CN2CCCCC2)c1 (stereo unspecified)	f
COc1ccc(-c2cc(-c3ccccc3)no2)c(OCC2CO2)c1 (stereo unspecified)	t

q: Is the reported Activity for `COc1ccc(-c2cc(-c3ccccc3)no2)c(OCCCC(=O)O)c1` strictly below 80%?
a: t

====

test system: Mus musculus; test: Antidyslipidemic activity in C57BL/Ks db/db mouse assessed as reduction in plasma cholesterol level at 100 mg/kg, po; format: functional
experimental_readout: inhibition in vivo at 100 mg/kg
Write your answer as a measured quantity: the number, then the unit.

compound	inhibition in vivo at 100 mg/kg
COc1ccc(-c2cc(-c3ccccc3)no2)c(OCCN2CCCCC2)c1	-12.2%
COc1ccc(-c2cc(-c3ccccc3)no2)c(OCCN2CCCC2)c1	-17.6%
CCN(CC)CCOc1cc(OC)ccc1-c1cc(-c2ccccc2)no1	-14.5%

Kindly consider the entry below.
q: Look up inhibition in vivo at 100 mg/kg of COc1ccc(-c2cc(-c3ccccc3)no2)c(OCC(O)CN2CCCC2)c1 (centres undefined) and report it.
a: -9.8%

====

molecular target: Tyrosine-protein phosphatase non-receptor type 1 (Homo sapiens); test: Inhibition of protein tyrosine phosphatase-1B at 10 uM incubated for 10 mins using pNPP substrate by modified Goldstein method
Each entry below lists one item and its recorded inhibition value.

COc1ccc(-c2cc(-c3ccccc3)no2)c(OCCN2CCOCC2)c1 82.9%
CCN(CC)CCCOc1cc(OC)ccc1-c1cc(-c2ccccc2)no1 21.8%
CCCCN(C)CCCOc1cc(OC)ccc1-c1cc(-c2ccccc2)no1 14.4%

q: Output measured inhibition for this item: `CCOC(=O)CCCOc1cc(OC)ccc1-c1cc(-c2ccccc2)no1`
a: 20.1%

q: Input `COc1ccc(-c2cc(-c3ccccc3)no2)c(OCCN(C(C)C)C(C)C)c1` , output reported inhibition.
a: 89.4%

q: Please indicate inhibition recorded for `CCN(CC)CCOc1cc(OC)ccc1-c1cc(-c2ccccc2)no1`
a: 94.7%

q: Specify inhibition for `CCOC(=O)COc1cc(OC)ccc1-c1cc(-c2ccccc2)no1` and stop.
a: 79.3%

q: Provide one value: measured inhibition of `COc1ccc(-c2cc(-c3ccccc3)no2)c(OCCN2CCCC2)c1`
a: 99.2%

q: Write down inhibition measured for item `COc1ccc(-c2cc(-c3ccccc3)no2)c(O)c1`
a: 21.8%

q: # return recorded inhibition for entry `COc1ccc(-c2cc(-c3ccccc3)no2)c(OCCN(C)C)c1`
a: 33.5%

q: Indicate its recorded inhibition; the compound in question is `COc1ccc(-c2cc(-c3ccccc3)no2)c(OCCCCl)c1`
a: 9%

====

target: Tyrosine-protein phosphatase non-receptor type 1 (Homo sapiens); assay: Inhibition of protein tyrosine phosphatase-1B at 10 uM incubated for 10 mins using pNPP substrate in absence of Triton X-100 by modified Goldstein method
pIC50: −log10 of the molar value.
Assign YES whenever pIC50 does not fall below 5; assign NO whenever it does.

compound	assigned_category
COc1ccc(-c2cc(-c3ccccc3)no2)c(OCC2CO2)c1 (stereo unspecified)	NO
COc1ccc(-c2cc(-c3ccccc3)no2)c(O)c1	NO

q: Threshold query (pIC50 >= 5) on `CCN(CC)CCOc1cc(OC)ccc1-c1cc(-c2ccccc2)no1`
a: YES

q: For this compound, is measured pIC50 5 or higher? `COc1ccc(-c2cc(-c3ccccc3)no2)c(OCCCN2CCCCC2)c1`
a: YES

q: Tell me whether pIC50 is at least 5 here: COc1ccc(-c2cc(-c3ccccc3)no2)c(OCC(O)CN2CCCC2)c1 (stereo unspecified)
a: YES

q: Quick check: does `CCOC(=O)CCCOc1cc(OC)ccc1-c1cc(-c2ccccc2)no1` have pIC50 greater than or equal to 5?
a: NO

src = ChEMBL document CHEMBL1781977
